system name: GNPAT_C122 (Homo sapiens, UniProt O15228)
Construct: endogenous in cells; host or cells: 22Rv1
Sequence (O15228 whole entry): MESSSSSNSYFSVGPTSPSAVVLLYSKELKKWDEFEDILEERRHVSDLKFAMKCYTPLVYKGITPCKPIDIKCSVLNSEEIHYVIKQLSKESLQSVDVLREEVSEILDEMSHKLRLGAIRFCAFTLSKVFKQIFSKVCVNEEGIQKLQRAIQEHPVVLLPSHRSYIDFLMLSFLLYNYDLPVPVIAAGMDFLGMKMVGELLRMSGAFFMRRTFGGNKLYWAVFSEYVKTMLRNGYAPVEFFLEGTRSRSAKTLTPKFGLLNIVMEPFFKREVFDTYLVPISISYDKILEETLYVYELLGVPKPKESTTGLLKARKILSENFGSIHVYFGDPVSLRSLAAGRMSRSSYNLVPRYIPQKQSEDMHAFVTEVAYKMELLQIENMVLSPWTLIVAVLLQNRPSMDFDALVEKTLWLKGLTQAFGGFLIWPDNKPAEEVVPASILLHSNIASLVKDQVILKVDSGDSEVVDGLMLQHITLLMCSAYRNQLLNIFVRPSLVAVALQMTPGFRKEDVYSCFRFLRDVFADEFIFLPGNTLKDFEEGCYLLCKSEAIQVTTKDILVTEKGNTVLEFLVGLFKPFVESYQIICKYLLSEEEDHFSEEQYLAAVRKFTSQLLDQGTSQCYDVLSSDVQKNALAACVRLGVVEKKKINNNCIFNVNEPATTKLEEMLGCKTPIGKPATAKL
assay overview: IA-DTB cysteine engagement
Format: binding
stated conditions: 22Rv1 cells, 20 μM probe, 1 h, relative to DMSO
Experimental: Sample preparation: Cells (adherent: 15 cm dishes, suspension: 2 million cells/mL) were treated with electrophilic probes in situ for indicated times and concentrations, washed with ice-cold PBS, and flash frozen in liquid nitrogen. […] Whole cell lysates protein content was measured using a standard DC protein assay (Bio-Rad) and 500 μL (2 mg/mL protein content) were treated with 5 μL of 10 mM 1A-DTB (in DMSO) for 1 h at ambient temperature with occasional vortexing. […]
outcome measure: % engagement GNPAT_C122 (%)

- C=CC(=O)N1C[C@@H](c2ccc(Br)cc2)[C@H]1C(=O)Nc1cccc2cccnc12: 70.5
- C=CC(=O)N1C[C@H](c2ccc(Br)cc2)[C@@H]1C(=O)Nc1cccc2cccnc12: 74.5
- C=CC(=O)N1C[C@H](c2ccc(Br)cc2)[C@H]1C(=O)Nc1cccc2cccnc12 [MY-3B]: 51.5
- C=CC(=O)N1C[C@H](c2ccc(Br)cc2)[C@H]1C(=O)Nc1cccc2cccnc12 [MY-3A]: 35.5

====

system name: CRYBG1_C1574 (Homo sapiens, UniProt Q9Y4K1)
Construct: endogenous in cells; host or cells: 22Rv1
Sequence (Q9Y4K1 whole entry): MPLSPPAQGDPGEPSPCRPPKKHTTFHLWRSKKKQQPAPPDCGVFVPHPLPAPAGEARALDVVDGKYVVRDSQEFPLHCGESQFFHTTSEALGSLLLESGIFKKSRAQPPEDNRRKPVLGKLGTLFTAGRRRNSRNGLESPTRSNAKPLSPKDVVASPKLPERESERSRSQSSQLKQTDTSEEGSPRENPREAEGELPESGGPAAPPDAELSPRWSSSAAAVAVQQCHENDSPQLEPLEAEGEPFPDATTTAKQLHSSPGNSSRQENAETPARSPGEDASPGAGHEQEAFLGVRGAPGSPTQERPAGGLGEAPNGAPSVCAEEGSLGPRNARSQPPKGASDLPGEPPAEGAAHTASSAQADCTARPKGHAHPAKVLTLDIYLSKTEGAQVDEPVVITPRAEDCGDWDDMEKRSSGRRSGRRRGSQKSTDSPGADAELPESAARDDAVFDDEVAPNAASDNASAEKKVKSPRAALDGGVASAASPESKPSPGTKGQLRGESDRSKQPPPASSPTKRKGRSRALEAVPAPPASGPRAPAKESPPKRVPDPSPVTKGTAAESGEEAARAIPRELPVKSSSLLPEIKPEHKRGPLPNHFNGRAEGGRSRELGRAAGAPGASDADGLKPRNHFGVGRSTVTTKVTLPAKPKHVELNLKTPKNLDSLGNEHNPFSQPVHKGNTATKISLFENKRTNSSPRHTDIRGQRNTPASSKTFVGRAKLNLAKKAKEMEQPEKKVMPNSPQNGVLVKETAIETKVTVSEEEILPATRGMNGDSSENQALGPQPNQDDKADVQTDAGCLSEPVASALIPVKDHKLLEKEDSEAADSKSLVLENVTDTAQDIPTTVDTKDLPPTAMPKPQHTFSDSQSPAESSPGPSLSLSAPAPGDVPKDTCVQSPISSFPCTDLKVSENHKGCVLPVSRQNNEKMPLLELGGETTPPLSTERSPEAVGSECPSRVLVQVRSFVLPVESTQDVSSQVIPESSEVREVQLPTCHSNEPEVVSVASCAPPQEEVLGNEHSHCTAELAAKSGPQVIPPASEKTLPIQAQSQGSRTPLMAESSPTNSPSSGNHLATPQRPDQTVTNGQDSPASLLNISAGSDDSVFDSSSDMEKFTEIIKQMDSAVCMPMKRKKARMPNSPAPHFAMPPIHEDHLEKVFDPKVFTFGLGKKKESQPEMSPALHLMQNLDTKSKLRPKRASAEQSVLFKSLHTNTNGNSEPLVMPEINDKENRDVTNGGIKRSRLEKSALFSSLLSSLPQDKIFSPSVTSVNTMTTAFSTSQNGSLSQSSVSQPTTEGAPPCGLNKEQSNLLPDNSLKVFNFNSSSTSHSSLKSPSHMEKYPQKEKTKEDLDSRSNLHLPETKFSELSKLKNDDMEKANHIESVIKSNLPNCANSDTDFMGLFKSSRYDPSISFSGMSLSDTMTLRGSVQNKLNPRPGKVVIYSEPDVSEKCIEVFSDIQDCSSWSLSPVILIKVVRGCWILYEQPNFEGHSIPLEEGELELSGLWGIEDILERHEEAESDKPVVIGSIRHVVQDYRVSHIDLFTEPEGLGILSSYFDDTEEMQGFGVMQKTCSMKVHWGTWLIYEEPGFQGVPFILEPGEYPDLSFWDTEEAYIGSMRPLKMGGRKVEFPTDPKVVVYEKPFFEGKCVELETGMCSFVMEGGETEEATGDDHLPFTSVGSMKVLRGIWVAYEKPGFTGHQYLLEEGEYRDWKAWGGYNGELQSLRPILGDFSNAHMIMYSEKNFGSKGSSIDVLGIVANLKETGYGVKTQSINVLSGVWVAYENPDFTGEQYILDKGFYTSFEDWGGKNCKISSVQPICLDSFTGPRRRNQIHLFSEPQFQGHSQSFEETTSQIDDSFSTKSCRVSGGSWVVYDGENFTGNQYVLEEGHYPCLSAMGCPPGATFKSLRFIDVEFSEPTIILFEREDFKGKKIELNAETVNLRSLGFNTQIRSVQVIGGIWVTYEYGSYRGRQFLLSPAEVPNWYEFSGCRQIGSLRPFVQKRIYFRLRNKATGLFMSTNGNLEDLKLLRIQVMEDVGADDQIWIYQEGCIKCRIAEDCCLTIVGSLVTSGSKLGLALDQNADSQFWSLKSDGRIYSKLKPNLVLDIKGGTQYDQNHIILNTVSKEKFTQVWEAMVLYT
assay overview: IA-DTB cysteine engagement
Type: binding
stated conditions: 22Rv1 cells, 20 μM probe, 1 h, relative to DMSO
Quick reference: % engagement CRYBG1_C1574 of the listed items.
outcome measure: % engagement CRYBG1_C1574

• C=CC(=O)N1C[C@H](c2ccc(Br)cc2)[C@H]1C(=O)Nc1cccc2cccnc12 [MY-3B] = 13.5%
• C=CC(=O)N1C[C@@H](c2ccc(Br)cc2)[C@H]1C(=O)Nc1cccc2cccnc12 [MY-1A] = 23%
• C=CC(=O)N1C[C@H](c2ccc(Br)cc2)[C@H]1C(=O)Nc1cccc2cccnc12 [MY-3A] = 28.5%
• C=CC(=O)N1C[C@H](c2ccc(Br)cc2)[C@@H]1C(=O)Nc1cccc2cccnc12 [MY-1B] = 72%

====

system name: CCNE2_C109 (Homo sapiens)
Construct: endogenous in cells; host or cells: 22Rv1
Sequence (O96020 whole entry): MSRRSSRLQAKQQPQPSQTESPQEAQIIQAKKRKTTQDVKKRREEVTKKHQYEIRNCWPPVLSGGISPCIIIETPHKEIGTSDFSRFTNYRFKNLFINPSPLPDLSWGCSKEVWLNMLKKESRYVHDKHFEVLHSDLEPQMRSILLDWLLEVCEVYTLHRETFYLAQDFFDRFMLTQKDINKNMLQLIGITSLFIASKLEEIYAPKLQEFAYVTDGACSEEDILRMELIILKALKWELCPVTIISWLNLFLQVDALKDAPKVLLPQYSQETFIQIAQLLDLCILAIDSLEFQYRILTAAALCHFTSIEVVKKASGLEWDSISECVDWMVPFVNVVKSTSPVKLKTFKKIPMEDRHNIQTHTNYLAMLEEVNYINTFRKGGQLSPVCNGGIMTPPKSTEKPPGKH
assay overview: IA-DTB cysteine engagement
Format: binding
stated conditions: 22Rv1 cells, 20 μM probe, 1 h, relative to DMSO
outcome measure: % engagement CCNE2_C109 (%)

• C=CC(=O)N1C[C@H](c2ccc(Br)cc2)[C@H]1C(=O)Nc1cccc2cccnc12 [MY-3B] = 42.75
• C=CC(=O)N1C[C@H](c2ccc(Br)cc2)[C@@H]1C(=O)Nc1cccc2cccnc12 = 76.75
• C=CC(=O)N1C[C@H](c2ccc(Br)cc2)[C@H]1C(=O)Nc1cccc2cccnc12 [MY-3A] = 21.75
• C=CC(=O)N1C[C@@H](c2ccc(Br)cc2)[C@H]1C(=O)Nc1cccc2cccnc12 = 77

====

system name: KRTCAP3_C197 (Homo sapiens)
Construct: endogenous in cells; host or cells: 22Rv1
Sequence (Q53RY4 1-240): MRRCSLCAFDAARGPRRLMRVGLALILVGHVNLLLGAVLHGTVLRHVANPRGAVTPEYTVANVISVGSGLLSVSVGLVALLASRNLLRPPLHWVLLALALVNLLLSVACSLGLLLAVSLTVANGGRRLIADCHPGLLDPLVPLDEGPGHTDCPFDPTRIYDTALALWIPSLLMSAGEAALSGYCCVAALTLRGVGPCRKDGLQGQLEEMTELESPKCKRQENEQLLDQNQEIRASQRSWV
assay overview: IA-DTB cysteine engagement
Type: binding
stated conditions: 22Rv1 cells, 20 μM probe, 1 h, relative to DMSO
Entries and their % engagement KRTCAP3_C197 values follow.
outcome measure: % engagement KRTCAP3_C197

• C=CC(=O)N1C[C@H](c2ccc(Br)cc2)[C@H]1C(=O)Nc1cccc2cccnc12 [MY-3A] = 31%
• C=CC(=O)N1C[C@@H](c2ccc(Br)cc2)[C@H]1C(=O)Nc1cccc2cccnc12 = 61%
• C=CC(=O)N1C[C@H](c2ccc(Br)cc2)[C@@H]1C(=O)Nc1cccc2cccnc12 = 69.5%
• C=CC(=O)N1C[C@H](c2ccc(Br)cc2)[C@H]1C(=O)Nc1cccc2cccnc12 [MY-3B] = 54%

====

system name: TOMM70_C214 (Homo sapiens, UniProt O94826)
Construct: endogenous in cells; host or cells: 22Rv1
Sequence (O94826 whole entry): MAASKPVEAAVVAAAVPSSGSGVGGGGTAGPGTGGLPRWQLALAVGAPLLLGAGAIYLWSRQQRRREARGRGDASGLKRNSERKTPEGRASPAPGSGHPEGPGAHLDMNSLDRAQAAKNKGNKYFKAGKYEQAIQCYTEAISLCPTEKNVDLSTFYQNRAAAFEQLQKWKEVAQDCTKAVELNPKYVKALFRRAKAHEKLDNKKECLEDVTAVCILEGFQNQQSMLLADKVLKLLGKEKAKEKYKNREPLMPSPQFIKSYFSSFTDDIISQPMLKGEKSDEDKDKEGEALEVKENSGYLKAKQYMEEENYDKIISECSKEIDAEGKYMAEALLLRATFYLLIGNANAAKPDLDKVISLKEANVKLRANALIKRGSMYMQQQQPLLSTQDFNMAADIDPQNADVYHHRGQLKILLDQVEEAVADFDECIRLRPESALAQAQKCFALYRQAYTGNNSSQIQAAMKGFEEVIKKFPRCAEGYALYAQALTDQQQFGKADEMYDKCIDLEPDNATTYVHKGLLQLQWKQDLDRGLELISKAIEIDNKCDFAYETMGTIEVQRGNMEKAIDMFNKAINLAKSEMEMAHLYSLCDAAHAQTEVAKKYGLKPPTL
assay overview: IA-DTB cysteine engagement
Assay type: binding
stated conditions: 22Rv1 cells, 20 μM probe, 1 h, relative to DMSO
% engagement TOMM70_C214 listing for selected molecules.
outcome measure: % engagement TOMM70_C214 (%)

• C=CC(=O)N1C[C@H](c2ccc(Br)cc2)[C@H]1C(=O)Nc1cccc2cccnc12 [MY-3A] = 30.5
• C=CC(=O)N1C[C@@H](c2ccc(Br)cc2)[C@H]1C(=O)Nc1cccc2cccnc12 [MY-1A] = 7.5
• C=CC(=O)N1C[C@H](c2ccc(Br)cc2)[C@@H]1C(=O)Nc1cccc2cccnc12 [MY-1B] = 29
• C=CC(=O)N1C[C@H](c2ccc(Br)cc2)[C@H]1C(=O)Nc1cccc2cccnc12 [MY-3B] = 71.5

====

Consider the following molecules and their measured % engagement CDKAL1_C556 readings.
system name: CDKAL1_C556 (Homo sapiens)
Construct: endogenous in cells; host or cells: 22Rv1
Sequence (Q5VV42 whole entry): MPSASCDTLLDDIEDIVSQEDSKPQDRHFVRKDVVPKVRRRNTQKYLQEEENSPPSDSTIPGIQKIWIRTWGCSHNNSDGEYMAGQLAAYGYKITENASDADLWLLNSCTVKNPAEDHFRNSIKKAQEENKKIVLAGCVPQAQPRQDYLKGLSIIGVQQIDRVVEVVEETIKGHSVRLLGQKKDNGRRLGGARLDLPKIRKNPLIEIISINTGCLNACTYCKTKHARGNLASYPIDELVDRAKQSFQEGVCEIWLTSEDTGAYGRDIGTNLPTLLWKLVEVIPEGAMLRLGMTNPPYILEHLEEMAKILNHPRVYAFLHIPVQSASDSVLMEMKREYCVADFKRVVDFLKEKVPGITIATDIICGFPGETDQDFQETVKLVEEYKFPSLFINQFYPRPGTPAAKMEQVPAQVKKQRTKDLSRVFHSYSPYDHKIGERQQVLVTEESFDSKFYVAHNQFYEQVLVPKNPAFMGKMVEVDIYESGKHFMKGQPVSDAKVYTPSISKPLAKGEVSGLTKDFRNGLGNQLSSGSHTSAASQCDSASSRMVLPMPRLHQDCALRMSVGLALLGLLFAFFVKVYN
assay overview: IA-DTB cysteine engagement
Assay type: binding
stated conditions: 22Rv1 cells, 20 μM probe, 1 h, relative to DMSO
outcome measure: % engagement CDKAL1_C556 (%)

- C=CC(=O)N1C[C@@H](c2ccc(Br)cc2)[C@H]1C(=O)Nc1cccc2cccnc12: 59.5
- C=CC(=O)N1C[C@H](c2ccc(Br)cc2)[C@@H]1C(=O)Nc1cccc2cccnc12: 91
- C=CC(=O)N1C[C@H](c2ccc(Br)cc2)[C@H]1C(=O)Nc1cccc2cccnc12 [MY-3B]: 89
- C=CC(=O)N1C[C@H](c2ccc(Br)cc2)[C@H]1C(=O)Nc1cccc2cccnc12 [MY-3A]: 88.5

====

system name: MRPS30_C204 (Homo sapiens)
Construct: endogenous in cells; host or cells: 22Rv1
assay overview: IA-DTB cysteine engagement
Assay type: binding
stated conditions: 22Rv1 cells, 20 μM probe, 1 h, relative to DMSO
Below, each of the molecules is paired with its reported % engagement MRPS30_C204 value.
outcome measure: % engagement MRPS30_C204 (%)

* C=CC(=O)N1C[C@@H](c2ccc(Br)cc2)[C@H]1C(=O)Nc1cccc2cccnc12 [MY-1A] | 74.5
* C=CC(=O)N1C[C@H](c2ccc(Br)cc2)[C@H]1C(=O)Nc1cccc2cccnc12 [MY-3B] | −41.5
* C=CC(=O)N1C[C@H](c2ccc(Br)cc2)[C@H]1C(=O)Nc1cccc2cccnc12 [MY-3A] | 1
* C=CC(=O)N1C[C@H](c2ccc(Br)cc2)[C@@H]1C(=O)Nc1cccc2cccnc12 [MY-1B] | −37

====

system name: ALG3_C21 (Homo sapiens, UniProt Q92685)
Construct: endogenous in cells; host or cells: 22Rv1
Sequence (Q92685 1-438): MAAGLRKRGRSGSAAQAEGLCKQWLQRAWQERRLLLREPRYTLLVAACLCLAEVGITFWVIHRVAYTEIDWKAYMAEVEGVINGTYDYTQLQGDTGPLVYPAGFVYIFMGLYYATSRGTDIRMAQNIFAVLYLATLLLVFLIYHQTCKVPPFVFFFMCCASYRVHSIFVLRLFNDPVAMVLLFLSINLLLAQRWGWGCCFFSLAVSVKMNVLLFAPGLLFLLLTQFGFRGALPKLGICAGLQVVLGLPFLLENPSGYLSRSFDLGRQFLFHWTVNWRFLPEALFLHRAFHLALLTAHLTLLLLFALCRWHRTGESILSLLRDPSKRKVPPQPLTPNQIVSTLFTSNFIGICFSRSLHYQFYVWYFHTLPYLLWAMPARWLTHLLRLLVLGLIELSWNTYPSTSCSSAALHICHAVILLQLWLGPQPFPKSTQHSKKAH
assay overview: IA-DTB cysteine engagement
Type: binding
stated conditions: 22Rv1 cells, 20 μM probe, 1 h, relative to DMSO
Experimental: Sample preparation: Cells (adherent: 15 cm dishes, suspension: 2 million cells/mL) were treated with electrophilic probes in situ for indicated times and concentrations, washed with ice-cold PBS, and flash frozen in liquid nitrogen. […] Whole cell lysates protein content was measured using a standard DC protein assay (Bio-Rad) and 500 μL (2 mg/mL protein content) were treated with 5 μL of 10 mM 1A-DTB (in DMSO) for 1 h at ambient temperature with occasional vortexing. […]
Below, each entry is listed with its recorded % engagement ALG3_C21.
outcome measure: % engagement ALG3_C21 (%)

• C=CC(=O)N1C[C@H](c2ccc(Br)cc2)[C@H]1C(=O)Nc1cccc2cccnc12 [MY-3B] = 84.75
• C=CC(=O)N1C[C@H](c2ccc(Br)cc2)[C@H]1C(=O)Nc1cccc2cccnc12 [MY-3A] = 74.5
• C=CC(=O)N1C[C@H](c2ccc(Br)cc2)[C@@H]1C(=O)Nc1cccc2cccnc12 = 68
• C=CC(=O)N1C[C@@H](c2ccc(Br)cc2)[C@H]1C(=O)Nc1cccc2cccnc12 = 90.25
